# Protocol: NCI Yeast Anticancer Drug Screen. Data for the mec2-1 strain (AID 157)
# Measurement parameters: S. cerevisiae mec2-1 strain, at 3.7 µM
This is part of a sample that, as a whole, favours compounds with a hit. Of some 79,000 tested, about 15% had one in any assay. Calls of active or inactive are those of the source. Rule as the data show it: active = growth inhibition above about 70%; inactive = the rest.
Give one outcome, nothing more. List: Y for active, N for inactive

Answered examples (3):
COC1=CC(=O)C(C2(OC(C)C)OC(=O)C(Cl)=C2Cl)=CC1=O (stereo unspecified) = N
Nc1ccccc1CC(O)C(=O)O (stereo unspecified) = N
C=CC(C)(O)CCC1C(=C)C(O)CC2C(C)(C)CCCC12C (stereo unspecified) = N

Could you please tell me the result logged for O=C(c1cc(Br)ccc1O)c1cc(Br)ccc1O in this assay? Y

Could you please tell me the result logged for Cc1ccc(S(=O)(=O)NNC(=S)Nc2cccc3ccccc23)cc1 in this assay? N

Could you please tell me the result logged for Cc1ccc(S(=O)(=O)Oc2cc(Cl)c(Cl)cc2Cl)cc1 in this assay? N

Could you please tell me the result logged for NNC(=O)CCc1ccc2ccc3ccccc3c2c1 in this assay? N

Could you please tell me the result logged for Cc1cc2c(cc1C(=O)CCC(=O)O)CC1(C2)Cc2cc(C)c(C(=O)CCC(=O)O)cc2C1 in this assay? N

Could you please tell me the result logged for OC(c1ccc(F)cc1)(c1ccc(F)cc1)C1CC1 in this assay? N

Could you please tell me the result logged for COc1cc(C2SCC(=O)N2c2nnc(C(F)(F)F)s2)cc(OC)c1OC (stereo unspecified) in this assay? N

Could you please tell me the result logged for O=[N+]([O-])c1cccc([N+](=O)[O-])c1S(=O)(=O)c1ccccc1 in this assay? N

====

# Protocol: NCI Yeast Anticancer Drug Screen. Data for the rad52 strain (AID 147);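 also: 0% = growth of vehicle-treated control cultures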
# Measurement parameters: S. cerevisiae rad52 mutant growth inhibition; at 100.0 µM
The panel holds about 79,000 compounds, 15% with a hit somewhere; the sample as a whole holds those more often. The source made the active and inactive calls. No stated cut-off is given here; in the data, active means growth inhibition above about 70%; inactive means the rest.
Give one outcome, nothing more. List: active, inactive

Answered examples (3):
O=C1C2C=CC1C1C(=O)OC(=O)C21 (configuration not stated) = inactive
O=C(CCCN1CCC(O)(c2ccc(Cl)cc2)CC1)c1ccc(F)cc1 = inactive
Cc1ccc(S(=O)(=O)NC(=O)NC2=NC(C)(C)N(c3ccc(Cl)c(Cl)c3)C(N)=N2)cc1 = inactive

Could you please tell me the result logged for COc1ccc2ccc3ccccc3c2c1C=O in this assay? inactive

Could you please tell me the result logged for COC1C=COC2(C)Oc3c(C)c(O)c4c(c3C2=O)/C(=N/C2CCC(O)OC2C)C=C(NC(=O)/C(C)=C\C(=O)C2CC2C(O)C(C)C(O)C(C)C(OC(C)=O)C1C)C4=O (configuration not stated) in this assay? active

====

# Protocol: NCI Yeast Anticancer Drug Screen. Data for the wt2 strain (AID 169);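 also: 0% = growth of vehicle-treated yeast cultures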
# Measurement parameters: S. cerevisiae wt2 strain growth inhibition; at 11.0 µM; stronger effect = higher value
The panel holds about 79,000 compounds, 15% with a hit somewhere; the sample as a whole holds those more often.
Lab note: anything with growth inhibition at or over 20% counts as y; the rest go in n.

Answered examples (4):
CCCCCCCCCCCC1=C(O)C(=O)C=C(O)C1=O = y
CC(C)NC(=O)OCc1c(COC(=O)NC(C)C)c(-c2ccc(Cl)c(Cl)c2)n2c1CCC2 = n
O=C(NC(Nc1ccc(F)c(Cl)c1)(C(F)(F)F)C(F)(F)F)C(C(F)(F)F)C(F)(F)F = y
CCCCN1C(=O)N(c2ccc(OCC)cc2)C2N(CCCC)C1C(C)(C)C2(C)C (stereo not given) = n

Turning to the following compound.
Determine whether measured growth inhibition meets or exceeds 20% for CC(C)[N+]([O-])(CCCNc1c2ccccc2nc2cccc([N+](=O)[O-])c12)C(C)C y

====

Documented growth inhibition across a set of compounds
# Protocol: NCI Yeast Anticancer Drug Screen. Data for the wt1 strain (AID 149);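 also: 0% = growth of vehicle-treated wt1 cultures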
# Measurement parameters: S. cerevisiae wt1 strain (SPY 50644) growth inhibition; at 100.0 µM; stronger effect = higher value
Compounds without any hit were thinned out: in the full panel of roughly 79,000, 15% have a hit. The source made the active and inactive calls. Rule as the data show it: active = growth inhibition above about 70%; inactive = the rest.

Examples with their reported growth inhibition follow.
COc1ccc2nc3cccc([N+](=O)[O-])c3c(NCCN(CCO)CCO)c2c1 = 77% (active)
NC(=NCc1ccccc1)N/N=C\c1ccnc2ccccc12 = 2% (inactive)
COc1cccc2nc3ccccc3nc12 = 91% (active)
Nc1nc(Cl)c(Cl)c(Cl)n1 = 99% (active)
O=C1OC(CCl)CN1/N=C/c1ccc([N+](=O)[O-])o1 (stereo not given) = 54% (inactive)

So what's the measured growth inhibition for this one? Cc1ccc(-c2ccc(Nc3c4ccccc4nc4ccccc34)cc2)cn1 67% (inactive)

So what's the measured growth inhibition for this one? CCOC(=O)c1cc(-c2ccc(Cl)cc2)c([N+](=O)[O-])n1C 96% (active)

So what's the measured growth inhibition for this one? S=c1[nH]nc(Nc2ccc(Cl)cc2)s1 89% (active)

====

Documented growth inhibition across a set of compounds
# Protocol: NCI Yeast Anticancer Drug Screen. Data for the CLN2oe strain (AID 163);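 also: 0% = growth of vehicle-only control cultures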
# Measurement parameters: S. cerevisiae CLN2oe strain, at 100.0 µM, stronger effect = higher value
Compounds without any hit were thinned out: in the full panel of roughly 79,000, 15% have a hit. Calls of active or inactive are those of the source. No stated cut-off is given here; in the data, active means growth inhibition above about 70%; inactive means the rest.

CCNc1nnc(CSc2nc(-c3ccccc3)c(-c3ccccc3)[nH]2)s1 = 76% (active)

So what's the measured growth inhibition for this one? S=C(N/N=C/c1ccccn1)Nc1ccc(Cl)cc1 79% (active)

So what's the measured growth inhibition for this one? COC(=O)C1=C(C(=O)OC)C2(C)C=CC1O2 (stereo not drawn) 42% (inactive)

So what's the measured growth inhibition for this one? Cc1ccc(S(=O)(=O)NNC(=S)Nc2cccc3ccccc23)cc1 -1% (inactive)

So what's the measured growth inhibition for this one? COC(=O)c1cc(-c2ccc(C)cc2)[nH]c(=O)c1C#N 4% (inactive)

So what's the measured growth inhibition for this one? COc1cc(C2SCC(=O)N2c2nnc(C(F)(F)F)s2)cc(OC)c1OC (stereo not drawn) -8% (inactive)

So what's the measured growth inhibition for this one? CCOc1ccc2c(c1)c(CC(=O)O)cn2C 40% (inactive)

====

# Protocol: NCI Yeast Anticancer Drug Screen. Data for the bub3 strain (AID 167)
# Measurement parameters: S. cerevisiae bub3 mutant strain, at 33.0 µM
The panel holds about 79,000 compounds, 15% with a hit somewhere; the sample as a whole holds those more often. Active and inactive are the calls of the source. Rule as the data show it: active = growth inhibition above about 70%; inactive = the rest.
Give one outcome, nothing more. List: yes = active, no = inactive

Answered examples (4):
Cc1cc(I)ccc1N = yes
CC(O)C(O)C(O)C(/C=N\Nc1ccccc1)=N/Nc1ccccc1 (configuration not stated) = no
CC(=O)N/N=C/C(C)(C)C(C)(C)/C=N/NC(C)=O = no
C=C(CN(C)C)C(=O)c1cc(C)ccc1C = yes

Could you please tell me the result logged for COC(=O)C1=C(C)NC(C)=C(C(=O)OCCCN2CCC(c3ccccc3)(c3ccccc3)CC2)C1c1cccc([N+](=O)[O-])c1 (configuration not stated) in this assay? yes

Could you please tell me the result logged for Cn1c(=O)c2ccccc2c2ccccc21 in this assay? no

Could you please tell me the result logged for CCOC(=O)c1cnc2c(C(F)(F)F)cccc2c1N=[N+]=[N-] in this assay? no

====

# Protocol: NCI Yeast Anticancer Drug Screen. Data for the rad18 strain (AID 177)
# Measurement parameters: S. cerevisiae rad18 mutant growth inhibition; at 100.0 µM; stronger effect = higher value
The panel holds about 79,000 compounds, 15% with a hit somewhere; the sample as a whole holds those more often.
Metric name: growth inhibition (%)
Please respond with the number in % and leave the unit unwritten.

Examples with their reported growth inhibition follow.
COc1cc2ccc(/C=C\[N+](=O)[O-])cc2cc1OC = 93
COc1cc(CC2CC(c3ccc4c(c3)OCO4)OC2=O)cc(OC)c1OC (stereo not drawn) = 10
COc1ccc2c(c1)C(=O)c1ccccc1C2 = -6

Query molecule follows.
So what's the measured growth inhibition for this one? O=C1C(Nc2ccccc2)=C(Oc2ccccc2)C(=O)c2ccccc21 1

====

# Protocol: NCI Yeast Anticancer Drug Screen. Data for the rad18 strain (AID 177)
# Measurement parameters: S. cerevisiae rad18 mutant growth inhibition; at 33.0 µM; stronger effect = higher value
This is part of a sample that, as a whole, favours compounds with a hit. Of some 79,000 tested, about 15% had one in any assay.
Grouping rule (growth inhibition): bottom range (below 50%), center range (50% to below 60%), top range (60% or more)

Answered examples (8):
O=C(Cc1csc2[n+]1C(=O)/C(=C/c1ccc(Cl)cc1)S2)Nc1ccccc1 = center range
CCOC(=O)c1cnc2cc(C(F)(F)F)ccc2c1N=[N+]=[N-] = center range
CCOc1ccc2c(c1)c(CC(=O)O)cn2C = center range
Cc1c(C(=O)C(=O)c2ccccc2)c(C)c(C(=O)C(=O)c2ccccc2)c(C)c1C(=O)C(=O)c1ccccc1 = bottom range
C/C(=N\NC(=S)N1CCCCC1)c1cccc(C)n1 = top range
NC(N)=N/N=C\c1c2ccccc2cc2ccccc12 = bottom range
Cc1nc(-c2ccccc2)c(-c2ccccc2)s1 = top range
CCCCCCCCCCCCCC[N+](C)(CC(=O)[O-])Cc1ccccc1 (stereo unspecified) = top range

Where would COc1ccc(Br)c(C(=O)Sc2nnnn2-c2cccc(Cl)c2)c1 land among the classes by reported growth inhibition? center range

Where would Cc1ccc(S(=O)(=O)NNC(=S)Nc2cccc3ccccc23)cc1 land among the classes by reported growth inhibition? bottom range
